TARGET_OR_SYSTEM: Dickkopf-related protein 1 (Homo sapiens) (UniProt O94907)
Sequence (O94907 whole entry, looked up): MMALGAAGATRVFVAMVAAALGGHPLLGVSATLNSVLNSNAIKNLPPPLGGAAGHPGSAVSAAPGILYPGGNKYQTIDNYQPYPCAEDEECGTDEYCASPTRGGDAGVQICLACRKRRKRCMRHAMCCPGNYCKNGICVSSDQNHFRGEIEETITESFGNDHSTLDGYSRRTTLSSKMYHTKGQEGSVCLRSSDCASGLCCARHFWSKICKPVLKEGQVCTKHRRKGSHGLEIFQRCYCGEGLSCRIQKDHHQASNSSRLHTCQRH
MEASUREMENT_DESCRIPTION: DKK1 binders on small-molecule microarrays, primary screen, biochemical, small-molecule microarray, 635 nm fluorescence scan (AID 1106);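 also: score merges emission near 667 nm with signal to noise over three replicate slides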
STUDY_CONDITIONS: DKK1 binding, higher = more signal
Task for the reader: assign each of the following molecules its reported composite z-score.
In your answer, state the number alone without any accompanying words.

Would you mind telling me what composite z-score value was observed for CN(C)C(=O)C1N=C(c2ccc(OCCCO)cc2)N(c2ccccc2)O1 (stereo not drawn) ?
0.726

Likewise for CCCCN1CC=CC23O[C@@H]4/C=C\CCC(C)OC(=O)C4[C@H]2C(=O)N(C(CO)C(C)C)[C@@H]3C1=O (stereo partly drawn) ?
0.125

Entry to check: NCCCCCCNC(=O)[C@@H]1C[C@@H]2C(=O)N[C@@H](CCCCN)C(=O)N2[C@@H]1c1cccc(OCCO)c1
1.64

Repeat for the following molecule: COc1ccc(NC(=O)O[C@H]2[C@H](OC(=O)Nc3ccccc3)[C@@H](OC(=O)Nc3ccccc3)[C@@H](OC)O[C@@H]2CO)cc1
0.396

What about CCOC(=O)C1=C[C@@H](c2ccccc2)N(S(=O)(=O)c2ccc(C)cc2)[C@H]1c1ccccc1Cl ?
0.508

Can you handle CN(C)C(=O)[C@@]1(CCS(=O)(=O)c2ccccc2)N=C(c2ccc(OCCCO)cc2)O[C@H]1c1ccccc1 next?
-0.94

Entry O=C1C=C(c2ccccc2)C(=O)c2ccc([C@H]3Oc4ccccc4S(=O)(=O)N4CCC[C@@H]34)cc21 please
0.714

Continue with CCOC(=O)c1ccc(NC(=O)O[C@H]2[C@H](OC(=O)Nc3ccc4c(c3)OCO4)[C@H](OC(=O)Nc3ccc4c(c3)OCO4)[C@@H](OC)O[C@@H]2CO)cc1
1

Input COC(=O)c1c2oc(c1C(=O)OC)C(=O)N(C)Cc1cn(nn1)C[C@H](Cc1ccccc1)NC(=O)N[C@H](CO)CC2
-0.316

Moving on to COCCCNC(=O)[C@@]1(Sc2ccc(C)cc2)CC(=O)N(C2CCCCC2)[C@@H]1c1ccc(CO)cc1
-1.65

Record: O=C1O[C@@H](c2ccccc2)[C@@H](c2ccccc2)N2[C@@H](c3ccc(O)cc3)[C@]3(C(=O)Nc4ccc(C#CC5(O)CCCCCC5)cc43)[C@@H](C(=O)NC[C@H](O)c3ccccc3)[C@H]12
-0.505

Then this molecule: Cc1cc(C)c(C(O)C2C=CC3C(=O)NC(=O)C3N2Nc2ccc(Cl)cc2Cl)c(C)c1 (stereo not drawn)
-0.0057

Next up: COCCOC(=O)N1C(=O)[C@@]2(c3cc(C#CCCO)ccc31)[C@H](C(=O)Nc1nc3ccccc3s1)[C@H]1C(=O)O[C@H](c3ccccc3)[C@H](c3ccccc3)N1[C@@H]2c1ccccc1OCCO
0.452

Now the molecule O=C1NC(=O)C2C1C=CC(C(O)c1cccc3ccccc13)N2Nc1ccc(Cl)cc1Cl (stereo not drawn)
-1.03

Request: COC(=O)c1cn(C[C@@H](Cc2ccccc2)NC(=O)N[C@H](CO)CCc2oc(C(C)=O)c(C(=O)OC)c2C(=O)OC)nn1
0.894

# repeat for CC(C)N1C(=O)c2ccccc2[C@@H](C(=O)NC2CC2)[C@@H]1c1ccc(CO)cc1
0.37

How about this molecule: CN1C(=O)C2C=CC(C(O)c3cccc4ccccc34)N(N3CCCCC3)C2C1=O (stereo not drawn)
0.353

How about this molecule: O=C1C[C@@](C(=O)NCCN2CCOCC2)(c2ccc([N+](=O)[O-])cc2)[C@@H](c2ccc(CO)cc2I)N1C1CCCCC1
0.397

Another: CN(C)CCCCNC(=O)[C@@H]1C[C@@H]2C(=O)N[C@@H](Cc3ccccc3)C(=O)N2[C@@H]1c1cccc(OCCO)c1
1.28

Moving on to O=C1O[C@H](c2ccccc2)[C@H](c2ccccc2)N2[C@H]1[C@@H](C(=O)Nc1nc3ccccc3s1)[C@]1(C(=O)Nc3ccc(C#CC4(O)CCCCCC4)cc31)[C@H]2c1ccccc1OCCO
0.452

Moving on to CCOC(=O)C[C@H]1[C@H](OC(=O)Cc2ccc3c(c2)OCO3)[C@@H](NC(=O)Cc2ccc(OC)cc2)c2cc(OCCCO)ccc2N1C(=O)c1ccc2ccccc2n1
0.567

Entry to check: COCCOC(=O)N1C(=O)[C@@]2(c3cc(C#CCNC(N)=O)ccc31)[C@H](C(=O)N1CCc3cc(OC)c(OC)cc3C1)[C@H]1C(=O)O[C@H](c3ccccc3)[C@H](c3ccccc3)N1[C@@H]2c1ccccc1OCCO
0.246

Then COCCCNC(=O)[C@@]1(Cc2ccccc2N=[N+]=[N-])COC(c2ccc(OCCCO)cc2)=N1 ?
-0.599

Would you kindly repeat that for CC(C)C[C@@H]1NC(=O)[C@@H]2C[C@H](C(=O)NCCCCCN)[C@H](c3ccc(O)cc3)N2C1=O ?
0.93

Also [N-]=[N+]=NCc1ccccc1C[C@@]1(C(=O)NCc2ccccc2)N=C(c2ccc(OCCCO)cc2)O[C@@H]1c1ccccc1N=[N+]=[N-] ?
-0.666

Cn1cccc1C(O)C1C=CC2C(=O)NC(=O)C2N1Nc1ccc(Cl)cc1Cl (stereo not drawn) ?
-0.43

Then what about the molecule CC(C)N1C(=O)C[C@@](C(=O)NCCCN(C)C)(c2ccc([N+](=O)[O-])cc2)[C@H]1c1ccc(CO)cc1 ?
-0.197

What do you have for O=C1O[C@@H](c2ccccc2)[C@@H](c2ccccc2)N2[C@@H](c3ccccc3OCCO)[C@]3(C(=O)Nc4ccc(C#CCCO)cc43)[C@@H](C(=O)N3CCCCCCC3)[C@H]12 ?
2.69
